Origin of measurements: ChEMBL document CHEMBL3638392

assayed_target: Amine oxidase [flavin-containing] A (Homo sapiens, UniProt P21397)
Sequence (P21397 whole entry): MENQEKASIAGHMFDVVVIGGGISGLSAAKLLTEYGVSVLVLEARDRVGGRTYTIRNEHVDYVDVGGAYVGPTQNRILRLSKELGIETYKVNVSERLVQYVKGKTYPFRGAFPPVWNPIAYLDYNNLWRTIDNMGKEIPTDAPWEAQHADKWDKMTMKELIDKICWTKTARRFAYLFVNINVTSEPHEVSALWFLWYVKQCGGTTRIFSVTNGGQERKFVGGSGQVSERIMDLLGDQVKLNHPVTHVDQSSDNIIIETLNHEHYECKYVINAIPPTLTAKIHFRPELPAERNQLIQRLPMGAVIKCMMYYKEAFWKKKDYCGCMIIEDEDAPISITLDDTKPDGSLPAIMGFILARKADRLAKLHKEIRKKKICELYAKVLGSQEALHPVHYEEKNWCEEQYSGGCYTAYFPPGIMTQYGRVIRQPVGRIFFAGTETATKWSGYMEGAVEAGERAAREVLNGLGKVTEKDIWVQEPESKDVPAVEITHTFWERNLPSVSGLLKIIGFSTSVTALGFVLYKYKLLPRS
measurement_protocol: Activity Assay: Inhibitory activity of compounds was evaluated by a homogeneous luminescent method, the MAO-Glo Assay (Promega), measuring the monoamine oxidase activity (MAOs) from recombinant source (microsomes from baculovirus infected insect cells, Sigma).
recorded_metric: pIC50
Schema: pIC50 number; meaning minus log10 of the concentration expressed in molar units.

# pIC50 (molecule: "CS(=O)(=O)c1ccc(-c2ccc3cc(-n4ccnc4)ccc3n2)cc1" ) is 6.35
